- Study System: EGFR (Homo sapiens, UniProt P00533)
- Sequence (P00533 25-1210): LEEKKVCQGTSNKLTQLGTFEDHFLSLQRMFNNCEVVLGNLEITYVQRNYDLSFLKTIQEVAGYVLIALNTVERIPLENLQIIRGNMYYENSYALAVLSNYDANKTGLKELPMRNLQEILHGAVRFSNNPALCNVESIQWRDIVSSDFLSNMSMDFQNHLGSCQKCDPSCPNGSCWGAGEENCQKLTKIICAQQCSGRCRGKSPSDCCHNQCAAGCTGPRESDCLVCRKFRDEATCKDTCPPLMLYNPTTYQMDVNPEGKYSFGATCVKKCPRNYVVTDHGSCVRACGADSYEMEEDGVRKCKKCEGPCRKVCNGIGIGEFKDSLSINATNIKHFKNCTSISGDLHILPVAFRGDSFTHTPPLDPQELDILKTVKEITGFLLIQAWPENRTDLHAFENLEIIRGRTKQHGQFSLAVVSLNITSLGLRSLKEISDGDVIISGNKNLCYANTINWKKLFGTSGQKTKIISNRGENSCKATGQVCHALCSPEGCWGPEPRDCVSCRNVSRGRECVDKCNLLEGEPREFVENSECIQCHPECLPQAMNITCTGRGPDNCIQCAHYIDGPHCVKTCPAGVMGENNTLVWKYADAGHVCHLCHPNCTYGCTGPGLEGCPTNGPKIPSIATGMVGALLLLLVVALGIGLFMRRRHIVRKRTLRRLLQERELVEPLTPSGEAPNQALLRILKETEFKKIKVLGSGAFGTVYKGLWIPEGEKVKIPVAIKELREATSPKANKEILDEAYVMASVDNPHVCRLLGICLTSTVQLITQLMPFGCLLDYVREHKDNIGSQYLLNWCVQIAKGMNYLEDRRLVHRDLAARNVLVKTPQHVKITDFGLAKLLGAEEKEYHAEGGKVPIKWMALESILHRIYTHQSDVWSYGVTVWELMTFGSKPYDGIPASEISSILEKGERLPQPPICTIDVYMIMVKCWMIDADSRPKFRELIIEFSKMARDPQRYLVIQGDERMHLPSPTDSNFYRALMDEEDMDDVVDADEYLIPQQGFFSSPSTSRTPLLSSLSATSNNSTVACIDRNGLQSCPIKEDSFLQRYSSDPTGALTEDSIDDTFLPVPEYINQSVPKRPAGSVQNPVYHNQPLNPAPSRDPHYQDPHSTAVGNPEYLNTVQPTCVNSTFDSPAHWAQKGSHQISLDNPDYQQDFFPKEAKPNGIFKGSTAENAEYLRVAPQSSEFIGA
- Assay Explanation: Inhibition of a panel of kinases, in vitro HotSpot kinase assay: EGFR
- Type: biochemical
- Measurement Parameters: D-compounds panel data; 1 μM ATP
Listed here are compounds together with their documented IC50.

Reference set (3 entries):
>>> value_observed("C[C@@H]1[C@H](NC(=O)c2ccc(C3CC3)cc2)CCCN1c1cnc(C(N)=O)c(Nc2cnn(C)c2)c1")
"> 10000 nM"
>>> value_observed("C[C@@H]1[C@H](NC(=O)c2ccc(C3CC3)cc2)CCCN1c1cnc(C(N)=O)c(Nc2cnn(CCN(C)C)c2)n1")
"1000 to 10000 nM"
>>> value_observed("C[C@@H]1[C@H](NC(=O)N(C)C)CCCN1c1nnc(C(N)=O)c(Nc2cnn(C)c2)n1")
"1000 to 10000 nM"

Query block: Please provide the recorded IC50 for Cc1cc(Nc2nc(N3CCC[C@@H](NC(=O)c4ccc(C(C)(C)O)cc4)C3)cnc2C(N)=O)sn1 , tested on EGFR (Homo sapiens, UniProt P00533).
Result block: 1000 to 10000 nM

Query block: Cool, now C[C@@H]1[C@H](NC(=O)c2ccc(-c3ncccn3)cc2)CCCN1c1cnc(C(N)=O)c(Nc2cnn(C)c2)n1
Result block: 100 to 1000 nM

* * *

- Study System: BTK-WT (Homo sapiens, UniProt Q06187)
- Construct: purified from insect cells as a full-length construct containing an N-terminal 6X-His tag; His6 (N); made in house; host or cells: insect cells (baculovirus Sf21 in Method B)
- Sequence (Q06187 whole entry): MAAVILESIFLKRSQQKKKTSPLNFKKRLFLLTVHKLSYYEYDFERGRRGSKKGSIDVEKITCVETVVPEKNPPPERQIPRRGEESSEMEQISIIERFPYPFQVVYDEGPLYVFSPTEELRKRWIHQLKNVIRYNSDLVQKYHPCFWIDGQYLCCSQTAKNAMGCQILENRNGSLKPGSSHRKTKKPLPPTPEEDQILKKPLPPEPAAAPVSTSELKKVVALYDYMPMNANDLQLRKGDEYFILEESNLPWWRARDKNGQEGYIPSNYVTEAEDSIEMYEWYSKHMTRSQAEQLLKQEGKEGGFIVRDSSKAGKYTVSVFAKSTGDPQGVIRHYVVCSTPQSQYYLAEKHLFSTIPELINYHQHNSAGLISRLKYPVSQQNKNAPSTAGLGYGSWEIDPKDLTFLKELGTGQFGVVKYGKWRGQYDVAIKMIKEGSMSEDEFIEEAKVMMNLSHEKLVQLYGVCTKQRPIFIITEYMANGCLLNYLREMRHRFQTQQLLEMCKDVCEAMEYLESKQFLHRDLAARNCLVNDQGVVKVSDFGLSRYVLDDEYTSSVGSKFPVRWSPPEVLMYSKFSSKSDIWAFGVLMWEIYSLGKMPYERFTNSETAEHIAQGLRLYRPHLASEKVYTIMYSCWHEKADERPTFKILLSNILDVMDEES
- Assay Explanation: Btk in vitro inhibitory activity (one of Method A TR-FRET, Method B electrophoretic mobility shift, Method C radiometric filter binding)
- Format: biochemical
- Measurement Parameters: Table 12, Formula C-I; read-out: BTK-WT (IC50)
Measurement Type: IC50

Reference set (5 entries):
>>> value_observed("C=CC(=O)N1CCC[C@@H](N(C)c2nnc(C(N)=O)c(Nc3ccc(C(C)C)cc3)n2)C1")
"≤ 100 nM"
>>> value_observed("C=CC(=O)N1CC[C@H](Nc2nnc(C(N)=O)c(Nc3ccc(C(C)C)cc3)n2)C1")
"≤ 100 nM"
>>> value_observed("C=CC(=O)NCCCC(=O)N1CCC[C@H](Nc2nnc(C(N)=O)c(Nc3ccc(C(C)C)cc3)n2)C1")
"100 to 1000 nM"
>>> value_observed("C=CC(=O)N1CCC(CNc2nnc(C(N)=O)c(Nc3ccc(C(C)C)cc3)n2)CC1")
"≤ 100 nM"
>>> value_observed("CC(C)c1ccc(Nc2nc(N[C@H]3CCCN(C(=O)CCCN)C3)nnc2C(N)=O)cc1")
"100 to 1000 nM"

Query block: Data request, read-out IC50, for C=CC(=O)N1CC[C@@H](Nc2nnc(C(N)=O)c(Nc3cccc(C(=O)Nc4ccc(C(C)C)c(C)c4)c3)n2)C1
Result block: ≤ 100 nM

Query block: Cool, now C=CC(=O)N1CCC[C@@H](Nc2nnc(C(N)=O)c(Nc3ccc(C(C)C)cc3)n2)C1
Result block: ≤ 100 nM

Query block: Cool, now Cc1cc(Nc2nc(N(C)[C@H]3CCCN(C(=O)c4ccc(N(C)C)cc4)C3)cnc2C(N)=O)sn1
Result block: 1000 to 10000 nM

* * *

- Study System: LCK (Homo sapiens)
- Sequence (P06239 whole entry): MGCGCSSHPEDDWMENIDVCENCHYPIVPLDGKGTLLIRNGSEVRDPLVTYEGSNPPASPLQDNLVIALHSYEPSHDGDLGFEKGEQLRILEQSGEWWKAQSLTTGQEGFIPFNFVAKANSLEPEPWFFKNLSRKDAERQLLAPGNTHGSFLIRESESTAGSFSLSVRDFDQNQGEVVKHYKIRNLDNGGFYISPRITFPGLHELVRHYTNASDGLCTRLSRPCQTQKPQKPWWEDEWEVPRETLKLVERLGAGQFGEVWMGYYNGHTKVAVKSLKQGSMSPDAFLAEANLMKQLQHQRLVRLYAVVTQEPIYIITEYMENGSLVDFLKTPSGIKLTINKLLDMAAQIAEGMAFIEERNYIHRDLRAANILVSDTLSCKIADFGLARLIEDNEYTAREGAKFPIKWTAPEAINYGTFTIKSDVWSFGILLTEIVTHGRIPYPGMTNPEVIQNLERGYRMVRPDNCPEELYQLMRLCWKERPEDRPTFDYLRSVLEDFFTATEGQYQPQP
- Assay Explanation: Inhibition of a panel of kinases, in vitro HotSpot kinase assay: LCK
- Type: biochemical
- Measurement Parameters: D-compounds panel data; 1 μM ATP; read-out: IC50 LCK
pIC50: −log10 of the molar value.
Listed here are molecules together with their documented pIC50.

Query block: Data request, read-out pIC50, for C[C@@H]1[C@H](NC(=O)c2ccc(C3CC3)cc2)CCCN1c1cnc(C(N)=O)c(Nc2cnn(CC3CCC(F)(F)CC3)c2)n1
Result block: 5.00 to 6.00

Query block: Cool, now C[C@@H]1[C@H](NC(=O)c2ccc(C3CC3)cc2)CCCN1c1cnc(C(N)=O)c(Nc2cnn(C3CCC(F)(F)CC3)c2)n1
Result block: 6.00 to 7.00

Query block: Cool, now C[C@@H]1[C@H](NC(=O)c2ccc(C(O)C(F)(F)F)cc2)CCCN1c1cnc(C(N)=O)c(Nc2cnn(C)c2)n1 (single isomer, unassigned) [Example D-250]
Result block: 7.00 to 8.00

Query block: Cool, now C[C@H]1CC[C@@H](NC(=O)c2ccc(C3CC3)cc2)CN1c1cnc(C(N)=O)c(Nc2cnn(C)c2)n1
Result block: 7.00 to 8.00
